Give measured fold change (FC) for each item. Keep answers brief.
Assay: Ratio of Kcat to Km for Bacillus clausii NR beta-lactamase BCL1 to ratio of Kcat/Km for Bacillus anthracis beta-lactamase Bla1

In the examples that follow, each entry is paired with its recorded fold change (FC).
STRUCTURE STRING	REPORTED MEASUREMENT
CC1(C)S[C@@H]2[C@H](NC(=O)Cc3ccccc3)C(=O)N2[C@H]1C(=O)O	10
CCN1CCN(C(=O)N[C@@H](C(=O)N[C@@H]2C(=O)N3[C@@H]2SC(C)(C)[C@@H]3C(=O)O)c2ccccc2)C(=O)C1=O	10
CC1(C)S[C@@H]2[C@H](NC(=O)[C@H](N)c3ccc(O)cc3)C(=O)N2[C@H]1C(=O)O	10
O=C(Cc1cccs1)N[C@@H]1C(=O)N2C(C(=O)[O-])=C(C[n+]3ccccc3)CS[C@H]12	2

For the next question, use this molecule.
## Input Which fold change (FC) is listed for `CC1(C)S[C@@H]2[C@H](NC(=O)[C@H](C(=O)O)c3ccsc3)C(=O)N2[C@H]1C(=O)O` ?
## Output 10

---

Field: fold change (FC). Provide a value for each of the molecules that follow.
Assay: Ratio of Kcat for Bacillus clausii NR beta-lactamase BCL1 to Kcat for Bacillus cereus beta lactamase BcI

STRUCTURE STRING	fold change (FC)
CO/N=C(\C(=O)N[C@@H]1C(=O)N2C(C(=O)[O-])=C(C[n+]3cccc4c3CCC4)CS[C@H]12)c1csc(N)n1	500

Below are 3 molecules. Give each one its fold change (FC).
1. CC(=O)OCC1=C(C(=O)O)N2C(=O)[C@@H](NC(=O)Cc3cccs3)[C@H]2SC1
2. CO/N=C(\C(=O)N[C@@H]1C(=O)N2C(C(=O)O)=C(COC(N)=O)CS[C@H]12)c1ccco1
3. CO/N=C(\C(=O)N[C@@H]1C(=O)N2C(C(=O)O)=C(COC(C)=O)CS[C@H]12)c1csc(N)n1

## Output
1: 100; 2: 100; 3: 100
